Each recorded value in this set is attributed to patent US20080160035A1.

Molecular target: T1, hIL-4R on cells (STAT6-transfected HEK293, TF1, TF1/A12) (human, UniProt P24394 26-825)
T1 sequence (looked up): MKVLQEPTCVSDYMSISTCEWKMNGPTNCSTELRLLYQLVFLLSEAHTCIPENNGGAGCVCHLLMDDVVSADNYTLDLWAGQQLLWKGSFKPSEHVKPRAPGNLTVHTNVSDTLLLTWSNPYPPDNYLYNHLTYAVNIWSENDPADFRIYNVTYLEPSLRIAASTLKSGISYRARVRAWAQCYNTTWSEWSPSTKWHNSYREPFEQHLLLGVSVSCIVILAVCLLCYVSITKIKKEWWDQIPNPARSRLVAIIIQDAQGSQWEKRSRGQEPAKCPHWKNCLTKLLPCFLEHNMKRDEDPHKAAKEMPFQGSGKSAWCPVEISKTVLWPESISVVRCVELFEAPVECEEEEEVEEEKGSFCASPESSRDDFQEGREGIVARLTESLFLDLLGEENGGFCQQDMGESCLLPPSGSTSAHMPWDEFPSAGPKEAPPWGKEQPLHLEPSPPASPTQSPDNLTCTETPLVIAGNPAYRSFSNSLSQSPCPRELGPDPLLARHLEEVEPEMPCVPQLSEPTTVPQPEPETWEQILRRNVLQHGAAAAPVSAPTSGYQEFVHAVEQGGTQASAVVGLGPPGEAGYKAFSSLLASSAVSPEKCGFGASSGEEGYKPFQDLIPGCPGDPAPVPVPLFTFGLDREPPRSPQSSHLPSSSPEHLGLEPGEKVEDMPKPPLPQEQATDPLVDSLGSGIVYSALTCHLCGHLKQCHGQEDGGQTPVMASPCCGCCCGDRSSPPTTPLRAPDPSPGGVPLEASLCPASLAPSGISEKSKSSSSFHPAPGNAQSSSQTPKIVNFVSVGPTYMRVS
Assay: cell-based or functional assay
STAT6 Bioassay IC50 (HEK293 STAT6 luciferase, 40 pM hIL-13) vs 1 nM: at or above is 1.0, below is 0.0.

Below, 4 binders whose answers are already recorded.
binder	label
VAB 15C8-17 (antibody, V domains shown, Apparently tested with mouse constant region (anti-mouse IgG capture/detection)) VH: QVQLVESGGGLVQPGGSLRLSCAVSGFTISDHYMSWIRQAPGKGLEWISYISSSGSKIYYADSVKGRFTISRDNAKNSLFLQMNSLRAEDTAVYYCARTRQLVGDYWGQGTLVTVSS VL: DIQLTQSPSFLSASVGDRVTITCWASQGISSYLAWYQQKPGKAPKLLIFAASTLQSGVPSRFSGSGSGTEFTLTISSLQPEDFATYYCQQLNSYPLTFGGGTKVEIR	0.0
VAK12B11-9 (antibody, V domains shown, Apparently tested with mouse constant region (anti-mouse IgG capture/detection)) VH: QVQLVESGGGVVQPGRSLRLSCAASGFTFSSYAMYWVRQAPGKGLEWVAVISYDGSNKYYTDSVKGRFTVSRDNSKNTLFLQMNSLRAEDTALYYCAKESSSYGLDVWGQGTTVTVSS VL: DIQMTQSPSTLSASVGDRVAITCRASQSISNWLAWYQQKPGKAPKLLISKASSLKSGVPSRFSGSGSGTEFTLTISSLQPDDFAAYYCQQYNSYSYTFGQGTKLEIK	0.0
VAK11D4-1 (antibody, V domains shown, Apparently tested with mouse constant region (anti-mouse IgG capture/detection)) VH: QVRLVESGGGVVQPGRSLRLSCVASGFTFRSYGMHWVRQAPGRGLEWVAVISYDGSQTFYVDSVKVRFTISRDNSNNTLYLEMNSLRVDDTAVYFCVKEGRSGSWFDPWGQGTLVAVSS VL: DIHMTQSPSSLSASVGDRVTITCRASQAINNYLAWFQQKPGRTPKSLIFATSSLQSGVPSRFSGSGSGTDFTLTISSLQPEDFATYYCQQYNSHPWTFGQGTKVEIK	0.0
VAB 7B9-3 (antibody, V domains shown, Apparently tested with mouse constant region (anti-mouse IgG capture/detection)) VH: QVQLVQSGAEVKKPGASVKVSCKDSAYTFNRYGISWVRQAPGQGLEWMGWISAYTGNTVYAQKLQGRVTMTTDNSTSTAYMELRSLRSDDTAVYYCARDKSIFGVVRGFDYWGQGTLVTVSS VL: EIVMTQSPVTLSLSPGERATLPCRASQSVSSSLAWYQQKAGQSPRLLIYGASTRATGIPARFSGSGSGTEFTLTISNLQSEDFAVYYCQQYNNWPLTFGGGTKVEIK	1.0

# ---- query binder ----
Reported STAT6 Bioassay IC50 (HEK293 STAT6 luciferase, 40 pM hIL-13) at or above 1 nM? VAB 3B4-10 (antibody, V domains shown, Apparently tested with mouse constant region (anti-mouse IgG capture/detection)) VH: QVHLVQSGAEVKKPGASVKVSCKASGYTFTNYGIGWVRQAPGQGLEWMGWISIYNGNTNYAQRLQGRVTMTTDTSTSTAFMDLRSLKSDDTAVYYCARGSGYNFDHWGQGTLVTVSS VL: AIQMTQSPSSLSASVGDRVTITCRASQGIRNDLGWYQQIPGKAPKLLIYAASSLQSGVPSRFSGSGSGTDFTLTISNLQPEDFAVYFCLQDNTYPYTFGQGTNLESK
1.0
